assay: endothelial E-selectin expression blockers – imaging, HUVEC, immunofluorescence, MLSMR starter and 10KST1 sets, primary screen (AID 487); details: HUVEC TNFalpha-induced E-selectin immunofluorescence imaging, at 2 µM; hits give high values;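 note: signal is fraction of cell area covered by stained E-selectin grains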
PROPERTY: inhibition (%)
Write the number in % without appending the unit.

A selection of reference data follows.
| MOLECULE | PROPERTY | VALUE |
| --- | --- | --- |
| CC(=O)c1cccc(NC(=O)NCc2ccco2)c1 | inhibition | -43.8 |
| COc1ccc(C(C)NC(=O)c2ccoc2C)cc1OC (configuration not stated) | inhibition | 51.2 |
| O=C(Nc1ccon1)c1cc(-c2ccccc2)nc2ccccc12 | inhibition | -48.5 |
| O=C(CSc1nnc(C2COc3ccccc3O2)o1)N1CCCc2ccccc21 (configuration not stated) | inhibition | -80.9 |

I have this molecule here, "COc1ccc(OC)c(-n2nnnc2SCC(=O)NCc2ccc3c(c2)OCO3)c1" , and I need its recorded inhibition.
-26.8

Another molecule: COc1ccc(N2CCC(CNS(=O)(=O)c3cccc(C(F)(F)F)c3)C2)cc1 (configuration not stated)
-33.3

Another molecule: "O=c1nc(N2CCCC2)nc(Nc2ccccc2)[nH]1"
-62.6

###

# key: entry, value: NADPH fluorescence slope
target: Voltage-gated potassium channel subunit beta-2 (Rattus norvegicus) (UniProt P62483); test: enhancers of rat Kvbeta2 NADPH turnover – biochemical, NADPH fluorescence, primary screen (AID 623); details: Recombinant KvBeta, NADPH fluorescence decrease slope, 10 min; at 10 µM; hits give low values;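 note: fluorescence intensity change per second fitted from 20 to 320 s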
Sequence (P62483 whole entry, looked up): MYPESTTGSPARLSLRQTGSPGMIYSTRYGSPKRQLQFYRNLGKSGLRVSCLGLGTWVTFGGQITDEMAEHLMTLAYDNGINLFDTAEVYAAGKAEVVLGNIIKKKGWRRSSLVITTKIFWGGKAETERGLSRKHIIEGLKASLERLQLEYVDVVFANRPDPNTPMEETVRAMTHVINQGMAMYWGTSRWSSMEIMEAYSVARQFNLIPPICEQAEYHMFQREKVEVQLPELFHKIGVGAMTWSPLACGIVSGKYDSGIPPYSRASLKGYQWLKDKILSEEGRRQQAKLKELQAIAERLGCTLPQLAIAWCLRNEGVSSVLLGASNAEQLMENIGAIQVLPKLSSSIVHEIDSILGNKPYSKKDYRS
Please respond with just the number, no unit label.

I have this molecule here, CC(Sc1nnnn1-c1ccccc1)C(=O)Nc1ccc(Cl)cn1 (stereo unspecified) , and I need its recorded NADPH fluorescence slope.
2.6e-05

Another molecule: "NC(=O)CSc1nnc(-c2ccc(O)cc2)n1Cc1ccco1"
-4.4e-05

###

experiment: TLR3 IRF3 reporter activation blockers – cell-based, poly I:C stimulus, luciferase, 10K MLSCN set, primary screen (AID 602277); details: HEK293-TLR3 RL24 IRF3 luciferase reporter, at 10 µM, hits give high values
# key: entry, value: inhibition
Write the number in % without appending the unit.

A selection of reference data follows.
| COMPOUND | inhibition, % |
| --- | --- |
| O=C(NCCC1=CCCCC1)C1CCN(S(=O)(=O)c2cnc[nH]2)CC1 | 18.8 |
| COc1ccc(C(=O)CSc2nnc(-c3ccc(C)cc3)o2)cc1 | -18.5 |
| COCCSc1nnc(NC(=O)CSCc2ccccc2)s1 | 26.7 |

I have this compound here, "O=C(c1nn2cccnc2c1Cl)N1CCN(c2ccccc2)CC1" , and I need its recorded inhibition.
1.58

Another compound: "C=C(C)COc1ccc(-c2nc(N)ncc2-c2ccc(OC)cc2)c(O)c1"
27.1

###

assay: reduction of polyQ htt aggregates in cells – imaging, exon1htt(103Q)mCFP cells, high-content imaging, primary screen (AID 483); conditions: exon1htt(103Q)mCFP cell line, aggregate imaging, at 2 µM; hits give high values;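 note: compound exposure lasted 3 days before fixation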
Calls of active or inactive are those of the source.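 The calls were made as follows: active = visual image review flags a hit and inhibition of aggregation exceeds 20%; inconclusive = visual hit but inhibition at or below 20%; inactive = no hit on visual image review.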
PROPERTY: inhibition of aggregation

| MOLECULE | inhibition of aggregation |
| --- | --- |
| CCCNC(=O)c1c(N)n(-c2cc(OC)cc(OC)c2)c2nc3ccccc3nc12 | 3% (inactive) |
| COc1cccc(C(=O)Nc2cc(NC(=O)c3ccco3)ccc2OC)c1 | 24.4% (inactive) |
| Cc1nnc(SCc2cccc(Oc3ccccc3)c2)n1N | 2.8% (inactive) |

Let us examine a further case.
I have this molecule here, "O=c1oc2ccccc2c(O)c1CN1CCCCC1" , and I need its recorded inhibition of aggregation.
4.9% (inactive)
